assayedTarget: T1, human IL-10 receptor (hIL-10R alpha and beta chains) on HEK-Blue IL-10 reporter cells (human, UniProt Q13651 22-578; Q08334 20-325)
T1 sequence 1: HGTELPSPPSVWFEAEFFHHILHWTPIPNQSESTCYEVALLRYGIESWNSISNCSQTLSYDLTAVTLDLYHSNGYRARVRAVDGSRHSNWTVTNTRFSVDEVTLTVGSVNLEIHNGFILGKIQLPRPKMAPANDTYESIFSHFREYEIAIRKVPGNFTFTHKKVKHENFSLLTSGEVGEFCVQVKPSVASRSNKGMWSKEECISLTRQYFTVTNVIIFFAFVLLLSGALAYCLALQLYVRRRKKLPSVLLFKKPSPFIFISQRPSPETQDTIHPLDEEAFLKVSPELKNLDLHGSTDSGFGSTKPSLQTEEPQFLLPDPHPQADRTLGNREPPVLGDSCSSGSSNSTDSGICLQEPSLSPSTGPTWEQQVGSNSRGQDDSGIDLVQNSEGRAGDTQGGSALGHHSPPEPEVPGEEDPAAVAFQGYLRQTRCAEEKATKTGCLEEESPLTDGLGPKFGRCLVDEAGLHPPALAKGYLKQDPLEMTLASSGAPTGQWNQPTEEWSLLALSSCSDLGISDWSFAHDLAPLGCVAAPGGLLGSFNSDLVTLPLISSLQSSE
T1 sequence 2: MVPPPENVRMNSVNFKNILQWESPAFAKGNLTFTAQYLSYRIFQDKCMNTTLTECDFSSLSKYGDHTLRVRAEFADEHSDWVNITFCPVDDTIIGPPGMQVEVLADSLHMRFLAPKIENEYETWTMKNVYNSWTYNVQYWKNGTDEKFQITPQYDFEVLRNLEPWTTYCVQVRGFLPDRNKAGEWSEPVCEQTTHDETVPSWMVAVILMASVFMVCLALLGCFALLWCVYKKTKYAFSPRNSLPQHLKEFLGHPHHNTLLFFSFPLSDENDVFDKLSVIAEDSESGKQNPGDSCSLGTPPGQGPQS
method: cell-based or functional assay
propertyMeasured: Abs 630 (100 nM) (Abs 630)
Record the value in Abs 630, omitting the unit from your answer.

[[record]]
binder = "IL10R binding molecule of SEQ ID NO: 272 (bispecific antibody) QVQLQESGGGSVQAGGSLRLSCAASGYTYSMYCMGWFRQAPGKEREGVAQINSDGSTSYADSVKGRFTISKDNAKNTLYLQMNSLKPEDTAMYYCAADSRVYGGSWYERLCGPYTYEYNYWGQGTQVTVSSGGGSQVQLQESGGGSVQAGGSLRLSCAASRYTYNSYCMGWFRQAPGKEREGVATIDSDGMTRYADSVKGRFTISKDNAKNTLYLQMNSLKPEDTAMYYCAADADCTIAAMTTNPLGQGTQVTVSSASHHHHHH"
testresult = 0.38

[[record]]
binder = "IL10R binding molecule of SEQ ID NO: 320 (bispecific antibody) QVQLQESGGGSVQAGGSLRLSCAASRYTYNSYCMGWFRQAPGKEREGVATIDSDGMTRYADSVKGRFTISKDNAKNTLYLQMNSLKPEDTAMYYCAADADCTIAAMTTNPLGQGTQVTVSSGGGSQVQLQESGGGSVQAGGSLRLSCAASRFTYSSYCMGWFRQAPGKEREGVASIDSDGSTSYTDSVKGRFTISKDNAKNTLYLQMNSLKPEDTAMYYCALDLMSTVVPGFCGFLLSAGMDYWGKGTQVTVSSASHHHHHH"
testresult = 0.41

[[record]]
binder = "IL10R binding molecule of SEQ ID NO: 266 (bispecific antibody) QVQLQESGGGSVQAGGSLRLSCAASRFTYSSYCMGWFRQAPGKEREGVASIDSDGSTSYTDSVKGRFTISKDNAKNTLYLQMNSLKPEDTAMYYCALDLMSTVVPGFCGFLLSAGMDYWGKGTQVTVSSGGGSQVQLQESGGGSVQAGGSLRLSCTVSRYTASVNYMGWFRQAPGKEREGVATIFTGAGTTYYANSVKGRFTISRDNAKNTAYLQMNSLKPEDTAIYYCAVDFRGGLLYRPAYEYTYRGQGTQVTVSSASHHHHHH"
testresult = 0.39

[[record]]
binder = "IL10R binding molecule of SEQ ID NO: 309 (bispecific antibody) QVQLQESGGGSVQAGGSLRLSCAASGYTYSSGCMGWFRQAPGKEREAVAAINSDGSTSYADSVKGRFTISKDNAKNTLYLQMNSLKPEDTAMYYCAAEPYCSGGYPRWSVAEFGYWGQGTQVTVSSGGGSQVQLQESGGGSVQAGGSLRLSCTVSGYTYSSNCMGWFRQAPGKEREGVATIYTGGGNTYYADSVKGRFTISQDNAKNTVYLQMNNLKPEDTAMYYCAAEPLSRVYGGSCPTPTFDYWGQGTQVTVSSASHHHHHH"
testresult = 0.37

[[record]]
binder = "IL10R binding molecule of SEQ ID NO: 273 (bispecific antibody) QVQLQESGGGSVQAGGSLRLSCAASGYTYSMYCMGWFRQAPGKEREGVAQINSDGSTSYADSVKGRFTISKDNAKNTLYLQMNSLKPEDTAMYYCAADSRVYGGSWYERLCGPYTYEYNYWGQGTQVTVSSGGGSQVQLQESGGGSVQAGGSLRLSCTVSRYTASVNYMGWFRQAPGKEREGVATIFTGAGTTYYANSVKGRFTISRDNAKNTAYLQMNSLKPEDTAIYYCAVDFRGGLLYRPAYEYTYRGQGTQVTVSSASHHHHHH"
testresult = 0.41


Kindly note the recorded Abs 630 (100 nM) for IL10R binding molecule of SEQ ID NO: 271 (bispecific antibody) QVQLQESGGGSVQAGGSLRLSCAASGYTYSMYCMGWFRQAPGKEREGVAQINSDGSTSYADSVKGRFTISKDNAKNTLYLQMNSLKPEDTAMYYCAADSRVYGGSWYERLCGPYTYEYNYWGQGTQVTVSSGGGSQVQLQESGGGSVQAGGSLRLSCAASGYTYSSYCMGWFRQAPGKEREGVAHIDSDGSTSYADSVKGRFTISKDNAKNTLYLQMNSLKPEDTAMYYCAADPIPGPGYCDGGPNKYWGQGTQVTVSSASHHHHHH , which is 1.65

Kindly note the recorded Abs 630 (100 nM) for IL10R binding molecule of SEQ ID NO: 319 (bispecific antibody) QVQLQESGGGSVQAGGSLRLSCAASRYTYNSYCMGWFRQAPGKEREGVATIDSDGMTRYADSVKGRFTISKDNAKNTLYLQMNSLKPEDTAMYYCAADADCTIAAMTTNPLGQGTQVTVSSGGGSQVQLQESGGGSVQAGGSLRLSCAASRYLYSIDYMAWFRQSPGKEREPVAVIYTASGATFYPDSVKGRFTISQDNAKMTVYLQMNSLKSEDTAMYYCAAVRKTDSYLFDAQSFTYWGQGTQVTVSSASHHHHHH , which is 0.36

Kindly note the recorded Abs 630 (100 nM) for IL10R binding molecule of SEQ ID NO: 278 (bispecific antibody) QVQLQESGGGSVQAGGSLRLSCAVSGYAYSTYCMGWFRQAPGKEREGVAAIDSGGSTSYADSVKGRFTISKDNAKNTLYLRMNSLKPEDTAMYYCAAVPPPPDGGSCLFLGPEIKVSKADFRYWGQGTQVTVSSGGGSQVQLQESGGGSVQAGGSLRLSCAASGYTYSSYCMGWFRQAPGKEREGVAHIDSDGSTSYADSVKGRFTISKDNAKNTLYLQMNSLKPEDTAMYYCAADPIPGPGYCDGGPNKYWGQGTQVTVSSASHHHHHH , which is 1.18

Kindly note the recorded Abs 630 (100 nM) for IL10R binding molecule of SEQ ID NO: 284 (bispecific antibody) QVQLQESGGGSVQAGGSLRLSCTVSGYTYSSNCMGWFRQAPGKEREGVATIYTGGGNTYYADSVKGRFTISQDNAKNTVYLQMNNLKPEDTAMYYCAAEPLSRVYGGSCPTPTFDYWGQGTQVTVSSGGGSQVQLQESGGGSVQAGGSLRLSCAASGYTYSSGCMGWFRQAPGKEREAVAAINSDGSTSYADSVKGRFTISKDNAKNTLYLQMNSLKPEDTAMYYCAAEPYCSGGYPRWSVAEFGYWGQGTQVTVSSASHHHHHH , which is 0.34
